B1: PDLIM7 (parent)
chain: AAGGVPGGGSNNGKTPVCHQCHKV

Variants of: B1
Assay: protein stability index of a GFP-peptide fusion (GPS, HEK-293T) (PSI 1-6); higher = more stable;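 also: lentivirally expressed fusions sorted by FACS into six bins by GFP to DsRed ratio, PSI derived from sequencing read proportions per bin multiplied by bin number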
Details: c terminus: a fixed tail appended
Entries and their measured protein stability index follow.
Outcome measure: protein stability index

A1E : 4.24
G7T : 3.56
G8L : 3.72
G8M : 3.46
G3K : 3.87
A2M : 3.78
